experiment: Pharmacokinetics of BBR, M1 and M2 in vivo after single oral administration; conditions: ICR, mouse, plasma, po, 200 mg/kg, MRT(0–24 h), BBR in plasma, ICR mice, oral BBR 200 mg/kg + voriconazole 30 mg/kg, two-compartment model, mean ± SD
metric-name: MRT last (h)
Reply with just the number (in h).

get_value(item= COc1ccc2cc3[n+](cc2c1OC)CCc1cc2c(cc1-3)OCO2 [BBR, Berberine] , readout=MRT last) returns 6.5

----------
assay: Pharmacokinetics of BBR, M1 and M2 in vivo after single oral administration; conditions: ICR, mouse, plasma, po, 200 mg/kg, t1/2, BBR in plasma, ICR mice, oral BBR 200 mg/kg + voriconazole 30 mg/kg, two-compartment model, mean ± SD
metric-name: half-life
Don't forget the unit after the number, please.

get_value(item= COc1ccc2cc3[n+](cc2c1OC)CCc1cc2c(cc1-3)OCO2 [BBR, Berberine] , readout=half-life) returns 9.91 h

----------
experiment: Pharmacokinetics of BBR, M1 and M2 in vivo after single oral administration; conditions: ICR, mouse, plasma, po, 200 mg/kg, MRT(0−∞), BBR in plasma, ICR mice, oral BBR 200 mg/kg, two-compartment model, mean ± SD
metric-name: MRT inf (h)
Reply with just the number (in h).

get_value(item= COc1ccc2cc3[n+](cc2c1OC)CCc1cc2c(cc1-3)OCO2 , readout=MRT inf) returns 12.7

----------
test: Pharmacokinetics of BBR, M1 and M2 in vivo after single oral administration; details: ICR, mouse, plasma, po, 200 mg/kg, Cmax, BBR in plasma, ICR mice, oral BBR 200 mg/kg + voriconazole 30 mg/kg, two-compartment model, mean ± SD
metric-name: Cmax
Don't forget the unit after the number, please.

get_value(item= COc1ccc2cc3[n+](cc2c1OC)CCc1cc2c(cc1-3)OCO2 [BBR, Berberine] , readout=Cmax) returns 0.0645 µg/mL

----------
assay: Pharmacokinetics of BBR, M1 and M2 in vivo after single oral administration; conditions: ICR, mouse, plasma, po, 200 mg/kg, AUC(0−∞), BBR in plasma, ICR mice, oral BBR 200 mg/kg, two-compartment model, mean ± SD
metric-name: AUC(0-inf)

get_value(item= COc1ccc2cc3[n+](cc2c1OC)CCc1cc2c(cc1-3)OCO2 [BBR, Berberine] , readout=AUC(0-inf)) returns 334 ng·h/mL
